Data origin, for the record: paper PMC2171590

- experimental.system: Arp2/3 complex (yeast) (Saccharomyces cerevisiae, UniProt P32381+P47117, P32381:Y309A)
- protocol: fluorescence increase titration, one-site fit
measured.attribute: Kd (nM)

structure: O=P(O)(O)OP(=O)(O)OP(=O)(O)OC[C@H]1O[C@@H](n2cnc3c2ncn2ccnc32)[C@H](O)[C@@H]1O
number: 2400
